STUDY SYSTEM: mouse STING ligand-binding domain (mSTING-LBD) (Mus musculus)
Sequence (Q3TBT3 146-370): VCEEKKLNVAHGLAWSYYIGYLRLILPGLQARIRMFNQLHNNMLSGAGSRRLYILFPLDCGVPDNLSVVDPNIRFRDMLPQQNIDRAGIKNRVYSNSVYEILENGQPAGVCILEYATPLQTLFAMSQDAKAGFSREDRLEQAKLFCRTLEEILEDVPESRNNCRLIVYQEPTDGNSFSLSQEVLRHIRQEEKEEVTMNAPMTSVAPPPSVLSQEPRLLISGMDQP
MEASURED ATTRIBUTE: Kd

The reported value for C=CCc1ccc(O)c(-c2ccc(O)c(CC=C)c2)c1 [honokiol] in terms of Kd is 17 µM

###

MEASURED ATTRIBUTE: pKd
The meaning of pKd here: minus log10 of the concentration in molar units.

Note to self: pKd of C=CCc1ccc(O)c(-c2ccc(O)c(CC=C)c2)c1 [honokiol] with human STING ligand-binding domain (hSTING-LBD) (Homo sapiens, UniProt Q86WV6) was 4.89
